Target: AMPA receptor
Assay: Inhibition of AMPA-induced currents in rat brain mRNA-injected Xenopus oocytes
Type: cell-based
Conditions: Table I; Xenopus oocytes injected with rat brain mRNA; IC50 converted by Cheng-Prusoff equation
Threshold 50 µM. Ki below it: YES. Ki at it or above: NO.

Examples with answers:
• Cc1ccc(CCP(=O)(O)O)c(C[C@H](N)C(=O)O)c1 = YES
• O=c1[nH]c2cc([N+](=O)[O-])c([N+](=O)[O-])cc2[nH]c1=O [DNQX, reference compound] = YES
• N[C@@H](Cc1cc(Cl)ccc1CCP(=O)(O)O)C(=O)O = YES

Answer whether the molecule Cc1cc(C)c(CCP(=O)(O)O)c(C[C@H](N)C(=O)O)c1 has Ki strictly less than 50 µM
YES

Answer whether the molecule N[C@@H](Cc1cc(I)ccc1CCP(=O)(O)O)C(=O)O has Ki strictly less than 50 µM
YES

Answer whether the molecule N[C@@H](Cc1cc(Br)ccc1CCP(=O)(O)O)C(=O)O has Ki strictly less than 50 µM
NO

Answer whether the molecule N[C@@H](Cc1cc(F)ccc1CCP(=O)(O)O)C(=O)O has Ki strictly less than 50 µM
NO

* * *

Biological target: kainic acid (KA) receptor
Assay: Inhibition of KA-induced currents in rat brain mRNA-injected Xenopus oocytes
Format: cell-based
Settings: Table I; Xenopus oocytes injected with rat brain mRNA; IC50 converted by Cheng-Prusoff equation
readout-type: Ki, inhibition of KA-induced currents (µM)
Numeric only. Scale: µM

For orientation, consider the following solved cases.
• Cl.N[C@@H](Cc1cc(C2CCCCC2)ccc1CCP(=O)(O)O)C(=O)O [Example 12] = 139
• CCc1ccc(CCP(=O)(O)O)c(C[C@H](N)C(=O)O)c1 [Example 2] = 17
• N[C@@H](Cc1cc(Br)ccc1CCP(=O)(O)O)C(=O)O [Example 3] = 10
• O=c1[nH]c2cc([N+](=O)[O-])c([N+](=O)[O-])cc2[nH]c1=O [DNQX, reference compound] = 0.1
• N[C@@H](Cc1cc(-c2ccccc2)ccc1CCP(=O)(O)O)C(=O)O [Example 11] = 76

Form entry - test system: kainic acid (KA) receptor; read-out: Ki, inhibition of KA-induced currents; compound: N[C@@H](Cc1cc(F)ccc1CCP(=O)(O)O)C(=O)O [Example 5]
68

Form entry - test system: kainic acid (KA) receptor; read-out: Ki, inhibition of KA-induced currents; compound: Cc1cc(C)c(CCP(=O)(O)O)c(C[C@H](N)C(=O)O)c1 [Example 7]
12

Form entry - test system: kainic acid (KA) receptor; read-out: Ki, inhibition of KA-induced currents; compound: Cc1ccc(CCP(=O)(O)O)c(C[C@H](N)C(=O)O)c1 [Example 1]
11

Form entry - test system: kainic acid (KA) receptor; read-out: Ki, inhibition of KA-induced currents; compound: N[C@@H](Cc1cc(Cl)ccc1CCP(=O)(O)O)C(=O)O [Example 4]
15

Form entry - test system: kainic acid (KA) receptor; read-out: Ki, inhibition of KA-induced currents; compound: N[C@@H](Cc1cc(I)ccc1CCP(=O)(O)O)C(=O)O [Example 6, 5-Iodo-2-(2-phosphonoethyl)phenylalanine]
3.6

Form entry - test system: kainic acid (KA) receptor; read-out: Ki, inhibition of KA-induced currents; compound: Cl.N[C@@H](Cc1cccc(-c2ccccc2)c1CCP(=O)(O)O)C(=O)O [Example 16]
83

Form entry - test system: kainic acid (KA) receptor; read-out: Ki, inhibition of KA-induced currents; compound: N[C@@H](Cc1ccc([N+](=O)[O-])cc1CCP(=O)(O)O)C(=O)O [Example 22]
13

Form entry - test system: kainic acid (KA) receptor; read-out: Ki, inhibition of KA-induced currents; compound: CC(C)(C)c1ccc(CCP(=O)(O)O)c(C[C@H](N)C(=O)O)c1 [Example 10]
29
